Property: Ki; scope: individual molecules
assay-system: Serotonin 2 (5-HT2) receptor (Rattus norvegicus, UniProt P30994+P08909+P14842)
run-description: The compound was tested for its binding affinity towards 5-hydroxytryptamine 2 receptor by displacing [3H]ketanserin radioligand in rat cerebral cortex
Assay type: tissue-based
experimental-readout: Ki

INSERT INTO assay_data (molecule, experimental_readout, reported) VALUES
  ('COc1ccccc1N1CCN(Cc2ccc(CN3CCCC3=O)n2C)CC1', 'Ki', '> 1000 nM'),
  ('COc1ccccc1N1CCNCC1', 'Ki', '> 100 nM'),
  ('Cn1c(CN2CCN(c3cccc([N+](=O)[O-])c3)CC2)ccc1CN1CCCCC1=O', 'Ki', '669 nM'),
  ('CC(C)c1ccccc1N1CCN(Cc2ccc(CN3CCCCCCC3=O)n2C)CC1', 'Ki', '196 nM'),
  ('CC(C)Oc1ccccc1N1CCN(Cc2ccc(CN3CCCC3=O)n2C)CC1', 'Ki', '386 nM'),
  ('CC(C)c1ccccc1N1CCN(Cc2ccc(CN3CCCC3=O)n2C)CC1', 'Ki', '409 nM'),
  ('CCOc1ccccc1N1CCN(Cc2ccc(CN3CCCC3=O)n2C)CC1', 'Ki', '455 nM'),
  ('Cn1c(CN2CCN(c3cccc([N+](=O)[O-])c3)CC2)ccc1CN1CCCC1=O', 'Ki', '> 100 nM'),
  ('COc1ccccc1N1CCN(Cc2ccc(CN3CCCCCCC3=O)n2C)CC1', 'Ki', '1000 nM'),
  ('CC(C)Oc1ccccc1N1CCN(Cc2ccc(CN3CCCCCC3=O)n2C)CC1', 'Ki', '1000 nM'),
  ('CC(C)Oc1ccccc1N1CCN(Cc2ccc(CN3CCCCC3=O)n2C)CC1 [RWJ-25730]', 'Ki', '1006 nM'),
  ('CC(C)Oc1ccccc1N1CCN(Cc2ccc(CN3CCCCCCC3=O)n2C)CC1', 'Ki', '260 nM'),
  ('CCCCOc1ccccc1N1CCN(Cc2ccc(CN3CCCCCC3=O)n2C)CC1', 'Ki', '237 nM'),
  ('CCc1ccccc1N1CCN(Cc2ccc(CN3CCCC3=O)n2C)CC1', 'Ki', '227 nM'),
  ('Cn1c(CN2CCN(c3cccc(C(F)(F)F)c3)CC2)ccc1CN1CCCC1=O', 'Ki', '1000 nM');

###

Below: a set of entries, each annotated with reported ED50.
System: Rattus norvegicus
run-description: Antipsychotic activity at a dose 10 times the ED50 value for CAR block for production of catalepsy in the rat (following i.p. dosing)
Format: functional
condition-notes: ip
experimental-readout: ED50

INSERT INTO measurements (smiles_string, reported) VALUES
  ('CCc1ccccc1N1CCN(Cc2ccc(CN3CCCCC3=O)n2C)CC1', '> 15 mg/kg'),
  ('CCCc1ccccc1N1CCN(Cc2ccc(CN3CCCC3=O)n2C)CC1', '> 30 mg/kg'),
  ('O=C1CCCN1Cc1ccc(CN2CCN(c3ccccc3)CC2)[nH]1', '> 15 mg/kg'),
  ('Cn1c(CN2CCN(c3ccccc3Cl)CC2)ccc1CN1CCCC1=O', '> 15 mg/kg'),
  ('COc1cccc(N2CCN(Cc3ccc(CN4CCCC4=O)n3C)CC2)c1', '> 7.5 mg/kg'),
  ('COc1ccccc1N1CCN(Cc2ccc(CN3CCCC3=O)n2-c2ccccc2)CC1', '> 15 mg/kg'),
  ('CCCCOc1ccccc1N1CCN(Cc2ccc(CN3CCCCCC3=O)n2C)CC1', '> 15 mg/kg'),
  ('COc1ccccc1N1CCN(Cc2ccc(CN3CCCC3=O)[nH]2)CC1', '> 15 mg/kg'),
  ('CC(C)c1ccccc1N1CCN(Cc2ccc(CN3CCCCCCC3=O)n2C)CC1', '> 15 mg/kg'),
  ('Cc1nc2sccn2c(=O)c1CCN1CCC(=C(c2ccc(F)cc2)c2ccc(F)cc2)CC1', '> 3 mg/kg');

###

assay-system: Serotonin 1 (5-HT1) receptor (Rattus norvegicus, UniProt P28564+P30940+P19327+P28565)
run-description: The compound was tested for its binding affinity towards 5-hydroxytryptamine 1 receptor by displacing [3H]5-HT radioligand in rat cerebral cortex
Format: tissue-based
experimental-readout: Ki

INSERT INTO assay_data (smiles_string, reported) VALUES
  ('COc1cccc(N2CCN(Cc3ccc(CN4CCCC4=O)n3C)CC2)c1', '> 1000 nM'),
  ('Cn1c(CN2CCN(c3cccc([N+](=O)[O-])c3)CC2)ccc1CN1CCCC1=O', '> 1000 nM'),
  ('CN1CCN(CCCN2c3ccccc3Sc3ccc(C(F)(F)F)cc32)CC1', '> 1000 nM');
